- Test system: WE-68 Ewing's sarcoma cells
- Assay overview: Cell viability assay (7AAD, 48 hours), WE-68
- Type: cell-based
- Condition details: 48 hours exposure; read-out: Cancer cell lines IC50 (μM) WE-68
Where a SMILES comes first, the peptide text is derived from it. The star is where a group is joined. Cbz = O=C(OCc1ccccc1)*
Lab note: compare IC50 with 1 µM, writing true if less and false if equal or more.

Prompt: Criterion: IC50 strictly below 1 µM. Is it met by CC(C)C[C@H](NC(=O)[C@H](Cc1ccccc1)NC(=O)c1cnccn1)B(O)O [Bortezomib, reference compound] ?
Completion: true

Prompt: Criterion: IC50 strictly below 1 µM. Is it met by `C#CCOc1ccc(C[C@@H](C=O)NC(=O)[C@H](CC(C)C)NC(=O)[C@H](Cc2ccc(N=[N+]=[N-])cc2)NC(=O)OCc2ccccc2)cc1` ?
Completion: false

Prompt: Criterion: IC50 strictly below 1 µM. Is it met by `C#CCOc1ccc(C[C@@H](C=O)NC(=O)[C@H](CC(C)C)NC(=O)[C@H](CCCN=[N+]=[N-])NC(=O)OCc2ccccc2)cc1` ?
Completion: true

Prompt: Criterion: IC50 strictly below 1 µM. Is it met by CC(C)CC1NC(=O)C(NC(=O)OCc2ccccc2)CCCCn2cc(nn2)COc2ccc(cc2)CC(C=O)NC1=O (stereo not drawn) ?
Completion: false

Prompt: Criterion: IC50 strictly below 1 µM. Is it met by CC(C)C[C@@H](C=O)NC(=O)[C@H](CC(C)C)NC(=O)[C@H](CC(C)C)NC(=O)OCc1ccccc1 [MG132, reference compound] (Cbz-Leu-Leu-Leu-aldehyde) ?
Completion: true

----------
- Assay system: 20S proteasome T-L activity (Oryctolagus cuniculus, UniProt G1SWK8)
- Construct: purchased Boston Biochem
- Sequence (G1SWK8 1-271): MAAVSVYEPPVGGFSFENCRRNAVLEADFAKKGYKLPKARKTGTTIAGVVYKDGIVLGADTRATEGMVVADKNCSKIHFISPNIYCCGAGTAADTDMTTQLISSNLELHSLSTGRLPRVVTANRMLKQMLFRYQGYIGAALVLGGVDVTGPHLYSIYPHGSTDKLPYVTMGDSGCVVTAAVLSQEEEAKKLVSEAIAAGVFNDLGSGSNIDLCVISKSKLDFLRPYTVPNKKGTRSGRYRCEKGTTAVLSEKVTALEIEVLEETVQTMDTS
- Assay overview: In vitro proteasome activity assay, T-L (Ac-RLR-AMC)
- Format: biochemical, rabbit
- Condition details: purified 20S proteasome; highest concentration tested 25,000 nM
Measured parameter: IC50

Prompt: Using the record for CC(C)CC1NC(=O)C(NC(=O)OCc2ccccc2)CCCCn2cc(nn2)COc2ccc(cc2)CC(C=O)NC1=O (stereo not drawn) , report its IC50.
Completion: > 25000 nM

Prompt: Using the record for `C#CCOc1ccc(C[C@@H](C=O)NC(=O)[C@H](CC(C)C)NC(=O)[C@H](CN=[N+]=[N-])NC(=O)OCc2ccccc2)cc1` , report its IC50.
Completion: > 25000 nM

Prompt: Using the record for `C#CCOc1ccc(C[C@@H](C=O)NC(=O)[C@@H](NC(=O)[C@H](CCCCN=[N+]=[N-])NC(=O)OCc2ccccc2)[C@@H](C)CC)cc1` , report its IC50.
Completion: > 25000 nM

----------
- Assay system: bovine α-chymotrypsin (bCT) (Bos taurus, UniProt P00766)
Measured parameter: pKi
# reply with the number alone; pKi is -log10 of concentration in mol/L

Prompt: Using the record for CC(C)CC(C=O)NC(=O)C1Cc2ccc(cc2)OCCCCOc2ccc(cc2)CCC(=O)c2ccc([nH]2)C(=O)N1 (centres unmarked) [Compound 3c] , report its pKi.
Completion: 5.72

Prompt: Using the record for O=CC(Cc1ccccc1)NC(=O)C1CCCCOc2ccc(cc2)CCC(=O)c2ccc([nH]2)C(=O)N1 (centres unmarked) [Compound 2d] , report its pKi.
Completion: 6.37
